target: T1, HLA-DR1 (HLA-DRB1*01:01) (human); test: competition ELISA vs biotin-HA 306-318;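 also: HLA and competitor incubated 24 to 72 h, maximal signal taken from wells lacking competitor, background from wells lacking HLA molecule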
T1 construct: mature; class II HLA molecule purified from homozygous EBV-transformed lymphoblastoid cells with antibody L243
No end group written: not given here.
Entries are grouped by relative affinity into these classes: low = under 20, middle = from 20 up to 60, high = 60 and over

Binder	Classification
GNMRAILIDWLVQVQ-NH2 [CCNB1 199-213]	middle
QHYLSYTEESLLPVM-NH2 [CCNB1 366-380]	middle

In: Bin this entry: MTVSIIDRFMQNNCV-NH2 [CCNB1 225-239]
Out: middle

In: Bin this entry: SEYVKDIYAYLRQLE-NH2 [CCNB1 168-182]
Out: middle

In: Bin this entry: LQLVGVTAMFIASKY-NH2 [CCNB1 244-258]
Out: low

In: Bin this entry: RAILIDWLVQVQMKF-NH2 [CCNB1 202-216]
Out: high

In: Bin this entry: ETMYMTVSIIDRFMQ-NH2 [CCNB1 221-235]
Out: high

In: Bin this entry: RPLPLHFLRRASKIG-NH2 [CCNB1 299-313]
Out: high

In: Bin this entry: DWLVQVQMKFRLLQE-NH2 [CCNB1 207-221]
Out: middle

In: Bin this entry: GDFAFVTDNTYTKHQ-NH2 [CCNB1 267-281]
Out: high

In: Bin this entry: KKMLQLVGVTAMFIA-NH2 [CCNB1 241-255]
Out: low

In: Bin this entry: VQMKFRLLQETMYMT-NH2 [CCNB1 212-226]
Out: low

Each recorded value in this set is attributed to patent US20180086804A1.
